Target System: human RNR (purified R1 and R2 subunits) (Homo sapiens, UniProt P23921+P31350)
Sequence (P23921 whole entry): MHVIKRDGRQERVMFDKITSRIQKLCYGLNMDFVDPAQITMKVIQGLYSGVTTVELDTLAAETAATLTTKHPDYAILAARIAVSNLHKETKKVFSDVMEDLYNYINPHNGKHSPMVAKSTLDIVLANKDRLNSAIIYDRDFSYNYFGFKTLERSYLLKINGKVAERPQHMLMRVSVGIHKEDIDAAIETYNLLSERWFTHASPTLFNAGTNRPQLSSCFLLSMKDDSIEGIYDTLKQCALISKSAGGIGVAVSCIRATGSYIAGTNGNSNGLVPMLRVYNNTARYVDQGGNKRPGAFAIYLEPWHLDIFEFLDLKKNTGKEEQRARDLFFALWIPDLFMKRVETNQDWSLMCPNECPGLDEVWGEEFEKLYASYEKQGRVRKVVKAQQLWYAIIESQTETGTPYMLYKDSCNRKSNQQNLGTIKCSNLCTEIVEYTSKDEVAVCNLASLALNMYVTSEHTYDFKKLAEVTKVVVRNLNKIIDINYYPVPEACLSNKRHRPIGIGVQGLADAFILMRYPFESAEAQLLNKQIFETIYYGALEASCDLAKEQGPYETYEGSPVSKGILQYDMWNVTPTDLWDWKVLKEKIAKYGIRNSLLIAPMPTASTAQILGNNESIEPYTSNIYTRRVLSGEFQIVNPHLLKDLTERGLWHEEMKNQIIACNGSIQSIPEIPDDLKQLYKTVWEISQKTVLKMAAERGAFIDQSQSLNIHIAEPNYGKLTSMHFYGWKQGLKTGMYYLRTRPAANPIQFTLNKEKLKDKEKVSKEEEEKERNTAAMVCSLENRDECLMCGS
Sequence (P31350 whole entry): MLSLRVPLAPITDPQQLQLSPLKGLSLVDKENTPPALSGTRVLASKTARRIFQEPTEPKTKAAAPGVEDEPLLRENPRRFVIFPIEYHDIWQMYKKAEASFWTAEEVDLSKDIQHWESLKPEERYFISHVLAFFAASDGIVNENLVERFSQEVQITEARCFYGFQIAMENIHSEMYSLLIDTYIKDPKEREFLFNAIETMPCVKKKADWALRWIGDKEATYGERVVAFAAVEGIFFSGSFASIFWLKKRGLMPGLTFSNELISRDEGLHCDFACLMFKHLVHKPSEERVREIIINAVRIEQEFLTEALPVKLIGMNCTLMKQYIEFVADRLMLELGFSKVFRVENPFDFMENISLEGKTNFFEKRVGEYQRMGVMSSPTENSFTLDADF
Experiment Notes: In vitro measurement of human RNR inhibitory activity (conversion of CDP to dCDP, HPLC)
Protocol Conditions: 100 μM CDP, 37° C., 30 minutes, read-out: RNR Inhibition (IC50)
Parameter Measured: IC50 (nM)
Express it in nM; write the number only.

The cases that follow already have their IC50 on record.
>>> df
                                   compound                             target_system  parameter_measured  unit_of_measurement  measured_result
0  NCCN(CCSc1ccc(O)cc1)CCSc1ccc(O)cc1 [Compound 59]  human RNR (purified R1 and R2 subunits) (Homo sapiens, UniProt P23921+P31350)                IC50                   nM             5730
1  Oc1ccc(SCCOCCOCCOCCOCCSc2ccc(O)cc2)cc1 [Compound 172]  human RNR (purified R1 and R2 subunits) (Homo sapiens, UniProt P23921+P31350)                IC50                   nM             2640
2  CCCN(CCSc1ccc(O)cc1)CCSc1ccc(O)cc1 [Compound 72]  human RNR (purified R1 and R2 subunits) (Homo sapiens, UniProt P23921+P31350)                IC50                   nM             1190
3  CC(=O)N(CCSc1ccc(O)cc1)CCSc1ccc(O)cc1 [Compound 54]  human RNR (purified R1 and R2 subunits) (Homo sapiens, UniProt P23921+P31350)                IC50                   nM              480
4  CSCCN(CCSc1ccc(O)cc1)CCSc1ccc(O)cc1 [Compound 87]  human RNR (purified R1 and R2 subunits) (Homo sapiens, UniProt P23921+P31350)                IC50                   nM             1010

Field request: IC50 | item: Oc1ccc(SCCN(CCSc2ccc(O)cc2)Cc2ccccc2F)cc1 [Compound 105]
3990

// same read-out, input: O=C(CN(CCSc1ccc(O)cc1)CCSc1ccc(O)cc1)N1CCCCC1 [Compound 203]
3180

// same read-out, input: O=CN(CCSc1ccc(O)cc1)CCSc1ccc(O)cc1 [Compound 53]
1050

// same read-out, input: Oc1ccc(SCCN(CCSc2ccc(O)cc2)Cc2ccccc2O)cc1 [Compound 92]
890

// same read-out, input: N#CCN(CCSc1ccc(O)cc1)CCSc1ccc(O)cc1 [Compound 77]
60

// same read-out, input: Oc1ccc(SCCCCCCSc2ccc(O)cc2)cc1 [Compound 137]
870

// same read-out, input: CS(=O)(=O)N(CCSc1ccc(O)cc1)CCSc1ccc(O)cc1 [Compound 118]
6870

// same read-out, input: O=C(CN(CCSc1ccc(O)cc1)CCSc1ccc(O)cc1)N1CCC[C@H]1CO [Compound 206]
1130

// same read-out, input: O=C(c1cccnc1)N(CCSc1ccc(O)cc1)CCSc1ccc(O)cc1 [Compound 116]
4130

---

Entries annotated with measured IC50
System: HeLa S3 cells
Experiment Notes: Test for growth inhibition of HeLa S3 cells
Format: cell-based
Protocol Conditions: Homo sapiens, HeLa S3, 72 h, HeLa S3 cells, 72 hours with test compound, Cell Proliferation Kit II; read-out: Cell growth inhibition (IC50)
# output: number + unit

>>> df
                                   compound  measured_result
0  Oc1ccc(SCCOCCOCCOCCSc2ccc(O)cc2)cc1 [Compound 171]            30 µM

Field request: IC50 | item: O=C(NCCCSc1ccc(O)cc1)C1C2C=CC(C2)C1C(=O)NCCCSc1ccc(O)cc1 (stereo not drawn) [Compound 191]
4.78 µM

// same read-out, input: O=C(CCSc1ccc(O)cc1)N(CCSc1ccc(O)cc1)CCSc1ccc(O)cc1 [Compound 52]
6.5 µM

// same read-out, input: Oc1ccc(SCC#CCSc2ccc(O)cc2)cc1 [Compound 160]
20.1 µM

// same read-out, input: Oc1ccc(SCCN(CCSc2ccc(O)cc2)Cc2ccc(F)cc2)cc1 [Compound 106]
6.77 µM

// same read-out, input: N=C(N)N(CCSc1ccc(O)cc1)CCSc1ccc(O)cc1 [Compound 49]
16 µM
